meta.source: ChEMBL document CHEMBL1157439

System: Cannabinoid receptor 1 (Homo sapiens, UniProt P21554) | Read-out: Ki
Sequence (P21554 whole entry): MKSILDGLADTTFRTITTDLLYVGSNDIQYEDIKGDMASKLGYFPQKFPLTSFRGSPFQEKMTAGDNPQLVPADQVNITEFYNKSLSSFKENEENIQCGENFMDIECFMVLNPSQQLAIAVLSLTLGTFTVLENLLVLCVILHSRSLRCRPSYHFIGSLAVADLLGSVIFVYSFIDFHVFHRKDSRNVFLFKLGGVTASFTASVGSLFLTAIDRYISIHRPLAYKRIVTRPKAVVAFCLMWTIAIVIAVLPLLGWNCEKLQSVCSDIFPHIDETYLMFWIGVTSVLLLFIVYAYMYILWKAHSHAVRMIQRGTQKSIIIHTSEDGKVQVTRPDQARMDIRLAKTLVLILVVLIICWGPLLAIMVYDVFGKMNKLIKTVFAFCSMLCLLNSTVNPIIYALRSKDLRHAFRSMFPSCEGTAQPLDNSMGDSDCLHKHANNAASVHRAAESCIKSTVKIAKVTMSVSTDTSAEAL

Examples with answers:
INSERT INTO assay_data (compound, endpoint, val) VALUES
  ('CCOc1ccc(Cc2nc3cc(C(=O)N(C)C4CCCCC4)ccc3n2CC2CC2)cc1', 'Ki', '> 5 µM'),
  ('CCOc1ccc(Cc2nc3cc(C(=O)N(CC)CC)ccc3n2CC2CCCCC2)cc1', 'Ki', '0.11 µM'),
  ('CCOc1ccc(Cc2nc3cc(C(=O)N(CC(F)(F)F)CC(F)(F)F)ccc3n2CC2CC2)cc1', 'Ki', '4.53 µM'),
  ('CCOc1ccc(Cc2nc3cc(C(N)=O)ccc3n2CC2CC2)cc1', 'Ki', '> 5 µM'),
  ('CCCN(C)C(=O)c1ccc2c(c1)nc(Cc1ccc(OCC)cc1)n2CC1CC1', 'Ki', '> 5 µM');

Give Ki for CCOc1ccc(Cc2nc3cc(C(=O)N(CC)CC)ccc3n2CC2CC2)cc1
> 5 µM

Identify measured Ki associated with CCOc1ccc(Cc2nc3cc(C(=O)N(CC)CC)ccc3n2C[C@@H]2CCCO2)cc1
> 5 µM

Consider the compound CCN(CC)C(=O)c1ccc2c(c1)nc(Cc1ccc(OC)cc1)n2CCC(C)C and give its recorded Ki.
> 5 µM

Report Ki, nothing else, for this compound: CCOc1ccc(Cc2nc3cc(C(=O)N(CC)CC)ccc3n2CC2CC2)nc1
> 5 µM

Indicate the recorded Ki value for this compound: CCOc1ccc(Cc2nc3cc(C(=O)N(CC)CC)ccc3n2CC2CCCC2)cc1
0.491 µM

Please supply the value of reported Ki for the item CCN(CC)C(=O)c1ccc2c(c1)nc(Cc1ccc(Oc3ccccc3)cc1)n2CCC(C)C
2.4 µM

====

Assay read-out Ki; system under study: Cannabinoid receptor 1 (Homo sapiens).

INSERT INTO measurements (mol, assayed_system, val) VALUES
  ('CCOc1ccc(Cc2nc3cc(C(=O)N(CC)CC)ccc3n2CC2CC2)cn1', 'Cannabinoid receptor 1 (Homo sapiens)', '> 5 µM'),
  ('CCOc1ccc(Cc2nc3cc(N(C)C(=O)NC(C)C)ccc3n2CC2CC2)cc1', 'Cannabinoid receptor 1 (Homo sapiens)', '> 5 µM'),
  ('CCN(CC)C(=O)c1ccc2c(c1)nc(Cc1ccc(OC3CCCCC3)cc1)n2CCC(C)C', 'Cannabinoid receptor 1 (Homo sapiens)', '> 5 µM');

Fill in reported Ki for this entry: CCOc1ccc(Cc2nc3cc(N(C)C(=O)N4CCCCC4)ccc3n2CC2CC2)cc1
3.48 µM

Give the reported Ki for this compound. CCOc1ccc(Cc2nc3cc(C(=O)N(CC)CC)ccc3n2Cc2cc[n+]([O-])cc2)cc1
> 5 µM

====

# Assayed system: Cannabinoid receptor 2 (Homo sapiens, UniProt P34972)
# Sequence (P34972 whole entry): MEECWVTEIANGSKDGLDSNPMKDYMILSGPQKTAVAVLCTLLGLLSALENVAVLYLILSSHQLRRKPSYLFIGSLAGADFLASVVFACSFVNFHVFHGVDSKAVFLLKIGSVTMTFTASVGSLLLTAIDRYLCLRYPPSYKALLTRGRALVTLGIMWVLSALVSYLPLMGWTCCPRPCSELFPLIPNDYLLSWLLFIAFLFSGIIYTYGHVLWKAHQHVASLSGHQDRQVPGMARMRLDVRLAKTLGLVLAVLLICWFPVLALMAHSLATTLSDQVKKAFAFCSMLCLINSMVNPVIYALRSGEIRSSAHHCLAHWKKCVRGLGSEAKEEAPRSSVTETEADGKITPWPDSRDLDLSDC
# Test method notes: Agonist activity at cloned human CB2 receptor in Sf9 cells assessed as stimulation of [35S]GTPgammaS binding assay
// classify: if (EC50 < 2 nM) true else false

INSERT INTO assay_data (mol, assayed_system, qualitative_label) VALUES
  ('CCN(CC)C(=O)c1ccc2c(c1)nc(Cc1ccc(OC)cc1)n2CCC(C)C', 'Cannabinoid receptor 2 (Homo sapiens, UniProt P34972)', 'false');

Below 2 nM on EC50? Entry CCOc1ccc(Cc2nc3cc(C(=O)N(CC)CC)ccc3n2Cc2ccccn2)cc1
false

Say whether its EC50 is strictly beneath 2 nM. Entry: CCN(CC)C(=O)c1ccc2c(c1)nc(Cc1ccc(Oc3ccccc3)cc1)n2CCC(C)C
false

Hello, I'm reviewing records and need to know if EC50 of CCOc1ccc(Cc2nc3cc(C(=O)N(CC)CC)ccc3n2CC2CCCC2)cc1 is below 2 nM. Could you check?
true

Here's an entry: CCN(CC)C(=O)c1ccc2c(c1)nc(Cc1ccc(OC(C)C)cc1)n2CCC(C)C . Is its EC50 below 2 nM?
false

====

Record: Ki reported on Cannabinoid receptor 1 (Homo sapiens).

Worked examples follow.
INSERT INTO measurements (mol, endpoint, val) VALUES
  ('CCOc1ccc(Cc2nc3cc(C(=O)N(CC)CC)ccc3n2Cc2ccncc2)cc1', 'Ki', '> 5 µM'),
  ('CCOc1ccc(Cc2nc3cc(C(=O)N4CCCC4)ccc3n2CC2CC2)cc1', 'Ki', '> 5 µM'),
  ('CCOc1ccc(Cc2nc3cc(NC)ccc3n2CC2CC2)cc1', 'Ki', '> 5 µM'),
  ('CCOc1ccc(Cc2nc3cc(N(C)C(=O)N(CC)CC)ccc3n2CC2CC2)cc1', 'Ki', '> 5 µM'),
  ('CCN(CC)C(=O)c1ccc2c(c1)nc(Cc1ccc(OCC3CC3)cc1)n2CCC(C)C', 'Ki', '4.19 µM');

Provide Ki, tested on Cannabinoid receptor 1 (Homo sapiens), for CCN(CC)C(=O)c1ccc2c(c1)nc(Cc1ccc(OC3CCC3)cc1)n2CCC(C)C .
> 5 µM

Please report Ki with Cannabinoid receptor 1 (Homo sapiens) for item CCOc1ccc(Cc2nc3cc(N(C)C(C)=O)ccc3n2CC2CC2)cc1 .
> 5 µM

Give measured Ki for CCOc1ccc(Cc2nc3cc(NC(C)=O)ccc3n2CC2CC2)cc1 (Cannabinoid receptor 1 (Homo sapiens)).
> 5 µM

Please respond with reported Ki (system Cannabinoid receptor 1 (Homo sapiens)) for CCOc1ccc(Cc2nc3cc(C(=O)N(CC)CC)ccc3n2CC2CCNCC2)cc1 .
> 5 µM

Report its Ki with Cannabinoid receptor 1 (Homo sapiens) as the test system: CCN(CC)C(=O)c1ccc2c(c1)nc(Cc1ccc(OC3CCCC3)cc1)n2CCC(C)C
> 5 µM

Please indicate recorded Ki of CCOc1ccc(Cc2nc3cc(C(=O)N4CCCCC4)ccc3n2CC2CC2)cc1 measured with Cannabinoid receptor 1 (Homo sapiens).
> 5 µM

Find the measured Ki of CCNC(=O)c1ccc2c(c1)nc(Cc1ccc(OCC)cc1)n2CC1CC1 with Cannabinoid receptor 1 (Homo sapiens) as test system.
> 5 µM

Give Ki for CCCN(CCC)C(=O)c1ccc2c(c1)nc(Cc1ccc(OCC)cc1)n2CC1CC1 tested on Cannabinoid receptor 1 (Homo sapiens).
2.61 µM

Retrieve Ki on Cannabinoid receptor 1 (Homo sapiens); query CCOc1ccc(Cc2nc3cc(C(=O)N(CC)CC)ccc3n2CC2CCC2)cc1
3.12 µM

Report Ki from Cannabinoid receptor 1 (Homo sapiens) testing of CCOc1ccc(Cc2nc3cc(C(=O)N(CC)CC)ccc3n2CC2CCOCC2)cc1
1.21 µM

Quote Ki with test system Cannabinoid receptor 1 (Homo sapiens) for CCOc1ccc(Cc2nc3cc(C(=O)N(CC)CC)ccc3n2CC23CC4CC(CC(C4)C2)C3)cc1
0.406 µM

Check Cannabinoid receptor 1 (Homo sapiens) data and give Ki for CCOc1ccc(Cc2nc3cc(N(C)C(=O)CC(C)C)ccc3n2CC2CC2)cc1 .
> 5 µM

Give Ki for this entry on Cannabinoid receptor 1 (Homo sapiens): CCOc1ccc(Cc2nc3cc(C(=O)N(CC)CC)ccc3n2CCC(C)C)cc1
> 5 µM

====

Values of Ki reported for Cannabinoid receptor 2 (Homo sapiens, UniProt P34972) appear below.
The reply should be a number in nM, with the unit left off.

Provide Ki, system Cannabinoid receptor 2 (Homo sapiens, UniProt P34972), entry CCOc1ccc(Cc2nc3cc(C(=O)N(CC)CC)ccc3n2Cc2ccco2)cc1
11

Fill: Ki (Cannabinoid receptor 2 (Homo sapiens, UniProt P34972)) for this molecule CCOc1ccc(Cc2nc3cc(N(C)C(=O)CC(C)C)ccc3n2CC2CC2)cc1
4

Enter recorded Ki with Cannabinoid receptor 2 (Homo sapiens, UniProt P34972) for CCOc1ccc(Cc2nc3cc(N(C)C(=O)N(C)C)ccc3n2CC2CC2)cc1 here.
41

Give Ki for this entry on Cannabinoid receptor 2 (Homo sapiens, UniProt P34972): CCOc1ccc(C(O)c2nc3cc(C(=O)N(CC)CC)ccc3n2CCC(C)C)cc1 (stereo not given)
57

State measured Ki of the molecule CCN(CC)C(=O)c1ccc2c(c1)nc(Cc1ccc(OC(C)C)cc1)n2CCC(C)C with Cannabinoid receptor 2 (Homo sapiens, UniProt P34972).
4.5

====

# Assayed system: Cannabinoid receptor 2 (Homo sapiens)
# Test method notes: Agonist activity at cloned human CB2 receptor in Sf9 cells assessed as stimulation of [35S]GTPgammaS binding assay
Endpoint: EC50 (nM)
Please give a number only; it is taken to be in nM.

Consider the compound CCOc1ccc(Cc2nc3cc(C(=O)N(CC)CC)ccc3n2CC2CCC2)cc1 and give its recorded EC50.
1.3

Please supply the value of reported EC50 for the item CCOc1ccc(Cc2nc3cc(N(C)C(=O)c4cccs4)ccc3n2CC2CC2)cc1
2.6

Kindly indicate its recorded EC50. Item: CCOc1ccc(Cc2nc3cc(N(C)C(=O)NC(C)C)ccc3n2CC2CC2)cc1
6.4

Quickly give me recorded EC50 for CCNC(=O)c1ccc2c(c1)nc(Cc1ccc(OCC)cc1)n2CC1CC1
52

====

# Assayed system: Cannabinoid receptor 2 (Homo sapiens, UniProt P34972)
# Test method notes: Agonist activity at cloned human CB2 receptor in Sf9 cells assessed by [35S]GTPgammaS binding assay relative to delta9-THC
# Type: functional
compounds and their reported Emax
Field: numeric (%). Do not append units.

Consider the worked cases shown below.
INSERT INTO assay_data (compound, endpoint, val) VALUES
  ('CCOc1ccc(Cc2nc3cc(C(=O)N(CC)CC)ccc3n2CC2CCCC2)cc1', 'Emax', 79),
  ('CCN(CC)C(=O)c1ccc2c(c1)nc(Cc1ccc(Oc3ccccc3)cc1)n2CCC(C)C', 'Emax', 66),
  ('CCOc1ccc(Cc2nc3cc(C(=O)N(C)C4CCCCC4)ccc3n2CC2CC2)cc1', 'Emax', 60),
  ('CCOc1ccc(Cc2nc3cc(C(=O)N(CC)CC)ccc3n2Cc2ccco2)cc1', 'Emax', 78),
  ('CCOc1ccc(C(O)c2nc3cc(C(=O)N(CC)CC)ccc3n2CCC(C)C)cc1 (stereo not drawn)', 'Emax', 70);

Return reported Emax. Input compound: CCOc1ccc(C(=O)c2nc3cc(C(=O)N(CC)CC)ccc3n2CCC(C)C)cc1
55

Specify Emax for CCOc1ccc(Cc2nc3cc(N(C)C(=O)N4CCCCC4)ccc3n2CC2CC2)cc1 and stop.
60

Give recorded Emax. CCOc1ccc(Cc2nc3cc(N(C)C(=O)N(C)C)ccc3n2CC2CC2)cc1
55

For the compound CCOc1ccc(Cc2nc3cc(C(=O)N(CC)CC)ccc3n2Cc2ccncc2)cc1 , give its measured Emax value.
78
